Source of measurements: ChEMBL document CHEMBL1811814

Test system: SF-295
Procedure text: Growth inhibition of human SF295 cells assessed tumor cell growth at 10^-5 M
Assay type: functional
Design: scale not given: the % may be the effect or the level left
// values below are reported Activity
Attribute measured: Activity (%)

>>> df
                               smiles_entry  attribute_measured  numeric_value
0  O=C1/C(=C\c2cn(C(=O)c3ccc(Cl)cc3)c3ccccc23)c2ccccc2N1C(=O)c1ccc(Cl)cc1            Activity          101.9
1  O=C1C(=Cc2cn(Cc3ccccc3)c3ccccc23)C(=O)N(Cc2ccccc2)C(=O)N1Cc1ccccc1            Activity           34.3
2  CC1=NN(c2cccc(Cl)c2)C(=O)/C1=C\c1c[nH]c2ccccc12            Activity          116.2
3  O=C1/C(=C\c2ccccn2)c2ccccc2N1c1c(Cl)cccc1Cl            Activity          12.33

###

Test system: SF-539
Procedure text: Growth inhibition of human SF539 cells
Format: functional
Attribute measured: GI50 (nM)

                               smiles_entry  numeric_value
0  O=C1Nc2ccccc2/C1=C/c1cn(C(=O)c2c(Cl)cccc2Cl)c2ccccc12           5000
1  CC1=NN(c2cccc(Cl)c2)C(=O)/C1=C\c1c(O)ccc2ccccc12             10
2  O=C1/C(=C\c2coc3ccccc3c2=O)c2ccccc2N1c1c(Cl)cccc1Cl           3000
3  O=C1/C(=C\c2ccccn2)c2ccccc2N1c1c(Cl)cccc1Cl           2400
4  CC1=NN(c2cccc(Cl)c2)C(=O)/C1=C\C=C\c1ccccc1           2500

###

System: UACC-257
Procedure text: Growth inhibition of human UACC257 cells assessed tumor cell growth at 10^-5 M
Type: functional
Design: scale not given: the % may be the effect or the level left
// values below are reported Activity
Attribute measured: Activity (%)

In [3]: df
Out[3]:
                                smiles_entry  attribute_measured  numeric_value
 0  CC1=NN(c2cccc(Cl)c2)C(=O)/C1=C\c1cn(Cc2ccccc2)c2ccccc12            Activity           93.1
 1  C=CCn1cc(/C=C2\C(=O)N(c3cccc(Cl)c3)N=C2C)c2ccccc21            Activity          88.64
 2  O=C1/C(=C\c2ccccn2)c2ccccc2N1c1c(Cl)cccc1Cl            Activity           59.3
 3  Cc1ccc(S(=O)(=O)n2cc(/C=C3\C(=O)N(c4c(Cl)cccc4Cl)c4ccccc43)c3ccccc32)cc1            Activity          106.8
 4  O=C1/C(=C\c2cn(C(=O)c3ccccc3)c3ccccc23)c2ccccc2N1c1c(Cl)cccc1Cl            Activity          123.3
 5  CC1=NN(c2cccc(Cl)c2)C(=O)/C1=C\c1coc2ccccc2c1=O            Activity          98.36
 6  CC1=NN(c2cccc(Cl)c2)C(=O)/C1=C\c1c(O)ccc2ccccc12            Activity          79.99
 7  CC1=NN(c2cccc(Cl)c2)C(=O)/C1=C\C=C\c1ccccc1            Activity           63.3
 8  Cc1ccc(S(=O)(=O)n2cc(/C=C3\C(=O)Nc4ccccc43)c3ccccc32)cc1            Activity             84
 9  O=C1/C(=C\c2coc3ccccc3c2=O)c2ccccc2N1c1c(Cl)cccc1Cl            Activity          61.22
10  O=C1C(=Cc2cn(Cc3ccccc3)c3ccccc23)C(=O)N(Cc2ccccc2)C(=O)N1Cc1ccccc1            Activity           52.9
11  O=C1/C(=C\c2cn(C(=O)c3c(Cl)cccc3Cl)c3ccccc23)c2ccccc2N1C(=O)c1c(Cl)cccc1Cl            Activity            104
12  O=C1Nc2ccccc2/C1=C/c1cn(C(=O)c2c(Cl)cccc2Cl)c2ccccc12            Activity           79.1
13  C=CCn1cc(/C=C2\C(=O)N(c3c(Cl)cccc3Cl)c3ccccc32)c2ccccc21            Activity            116
14  O=C1Nc2ccccc2/C1=C/c1cn(C(=O)c2ccc(Cl)cc2)c2ccccc12            Activity           99.6
15  CC1=NN(c2cccc(Cl)c2)C(=O)/C1=C\c1cn(C(=O)c2c(Cl)cccc2Cl)c2ccccc12            Activity          88.84
16  CC1=NN(c2cccc(Cl)c2)C(=O)/C1=C\c1c[nH]c2ccccc12            Activity         122.98
17   CC1=NN(c2cccc(Cl)c2)C(=O)/C1=C\c1ccccn1            Activity         115.54
18  CN1C(=O)C(=Cc2coc3ccccc3c2=O)C(=O)N(C)C1=O            Activity          94.47
19  CC1=NN(c2cccc(Cl)c2)C(=O)/C1=C\c1cn(S(=O)(=O)c2ccc(C)cc2)c2ccccc12            Activity         114.55
20  CC1=NN(c2cccc(Cl)c2)C(=O)/C1=C\c1cn(C(=O)c2ccc(Cl)cc2)c2ccccc12            Activity         105.58
21  C#CCN1C(=O)/C(=C\c2cn(CC#C)c3ccccc23)c2ccccc21            Activity           97.8
